Taken from patent US8802673B2.

assayed.system: rat TAAR1 (Rattus norvegicus (Rat))
assay.method.text: Radioligand binding assay on rat TAAR1
condition.label: rat TAAR1 (second value of the cell), HEK-293 membranes; read-out: Ki (μM) mouse/rat
result.type: log10 Ki (log10 of the value in µM)
Each number you see is log10 of Ki, and the unit inside the log is µM.

CC(C)Oc1cnc(Nc2ccc([C@H]3CNCCO3)cc2)nc1
-1.07

Below is a list of compounds. For each, state its recorded log10 Ki.
1. Fc1cc(Cl)ccc1Nc1ccc([C@H]2CNCCO2)cc1
2. Fc1cc([C@@H]2CNCCO2)ccc1Nc1ncc(C2CC2)cn1

[out]
1: -0.68; 2: -2.52

Would you mind giving log10 Ki for every compound in the list below?
1. FC(F)Cn1ccc(Nc2ccc(C3CNCCO3)cc2)n1 (racemic)
2. Cc1cc([C@H]2CNCCO2)ccc1Nc1ncc(C2CC2)cn1
3. Cc1cc(C)nc(Nc2ccc([C@@H]3CNCCO3)cc2)n1
4. FC(F)(F)c1cccnc1Nc1ccc([C@H]2CNCCO2)cc1
5. Fc1cc(Cl)cnc1Nc1ccc([C@H]2CNCCO2)cc1
6. c1cc([C@H]2CNCCO2)ccc1Nc1ncc(OCC2CC2)cn1

[out]
[-0.83, -1.49, -0.35, 0.03, -0.89, -1.46]

* * *

assayed.system: rat TAAR1 (Rattus norvegicus (Rat))
result.type: Kd

[in] Consider the compound CCN(C[C@H]1COC(N)=N1)c1ccccc1 [reference compound] and give its measured Kd.
[out] ~2.3 nM

* * *

assayed.system: rat TAAR1 (Rattus norvegicus (Rat), UniProt Q923Y9)
Sequence (Q923Y9 whole entry): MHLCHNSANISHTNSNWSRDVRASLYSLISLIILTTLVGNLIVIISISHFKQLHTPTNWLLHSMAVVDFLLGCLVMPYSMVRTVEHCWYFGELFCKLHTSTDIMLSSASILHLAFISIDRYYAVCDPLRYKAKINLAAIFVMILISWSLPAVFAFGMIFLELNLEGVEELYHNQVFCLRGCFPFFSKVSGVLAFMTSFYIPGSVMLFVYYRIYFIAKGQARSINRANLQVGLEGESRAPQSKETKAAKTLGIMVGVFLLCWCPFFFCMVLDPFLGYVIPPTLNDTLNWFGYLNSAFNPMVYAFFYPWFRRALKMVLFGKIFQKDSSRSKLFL
assay.method.text: Radioligand binding assay on rat TAAR1
condition.label: rat TAAR1 (second value of the cell), HEK-293 membranes; read-out: Ki (μM) mouse/rat
Task for the reader: assign each of the following compounds its reported log10 Ki.
Heads up: the numbers are on a log10 scale; they represent Ki in µM.

Cn1cc(Br)c(Nc2ccc(C3CNCCO3)cc2)n1 (racemic)
-0.55
CCOc1cnc(Nc2ccc([C@@H]3CNCCO3)cc2F)nc1
-1.74
Brc1cnc(Nc2ccc([C@H]3CNCCO3)cc2)c(Br)c1
-0.30
COCCOc1cnc(Nc2ccc([C@@H]3CNCCO3)cc2)nc1
0.03
CN(c1ccc(Cl)cc1)c1ccc([C@H]2CNCCO2)cc1
-0.12

Parameters: items (list). Returns: log10 Ki for each item.
1. CCOc1cc(Nc2ccc([C@H]3CNCCO3)cc2)cnc1Cl
2. Cc1cc(Nc2ccc(C3CNCCO3)cc2C)ncc1Br (racemic)

[out]
1. -0.77
2. -1.71

Dear reader, for each entry below, please note its log10 Ki.
1. Clc1nc2ccccc2cc1CNc1ccc([C@H]2CNCCO2)cc1
2. COCCOc1cnc(Nc2ccc([C@H]3CNCCO3)cc2)nc1

[out]
1: -0.55; 2: 0.13

* * *

assayed.system: rat TAAR1 (Rattus norvegicus (Rat), UniProt Q923Y9)
assay.method.text: Radioligand binding assay on rat TAAR1
condition.label: rat TAAR1 (second value of the cell), HEK-293 membranes; read-out: Ki (μM) mouse/rat
Protocol: Construction of TAAR Expression Plasmids and Stably Transfected Cell Lines For the construction of expression plasmids the coding sequences of human, rat and mouse TAAR 1 were amplified from genomic DNA essentially as described by Lindemann et al.. The Expand High Fidelity PCR System (Roche Diagnostics) was used with 1.5 mM Mg^2+ and purified PCR products were cloned into pCR2.1-TOPO cloning vector (Invitrogen) following the instructions of the manufacturer. […]
result.type: Ki (µM)
Numbers only, in µM.

Illustrative cases are given below, each with its answer.
c1ccc(Cn2ccc(Nc3ccc([C@@H]4CNCCO4)cc3)n2)cc1 [Example 162]
0.127
c1ccc(Cn2ccc(Nc3ccc([C@H]4CNCCO4)cc3)n2)cc1 [Example 161]
0.223
COc1ccc(-c2cnc(Nc3ccc([C@@H]4CNCCO4)cc3)nc2)cc1OC [Example 142]
0.0146

From here, focus on the item given below.
[in] What Ki value was documented for this compound, N#Cc1ccnc(Nc2ccc([C@@H]3CNCCO3)cc2)n1 [Example 181] ?
[out] 0.398

* * *

assayed.system: rat TAAR1 (Rattus norvegicus (Rat))
assay.method.text: Radioligand binding assay on rat TAAR1
condition.label: rat TAAR1 (second value of the cell), HEK-293 membranes; read-out: Ki (μM) mouse/rat
I'd be grateful if you could share measured log10 of Ki for these entries.
The figures below represent log10 of Ki, where Ki is stated in µM.

Previously resolved entries follow.
Brc1cnc(Nc2ccc([C@@H]3CNCCO3)cc2)nc1
-1.31
Fc1cc(Nc2ncc(C3CC3)cn2)ccc1[C@@H]1CNCCO1
-2.59
N#Cc1cnc(Nc2ccc([C@H]3CNCCO3)cc2)nc1
-0.35

Take each entry in turn and give its log10 of Ki.
1. Cc1nc(Nc2ccc([C@H]3CNCCO3)cc2)ncc1C(C)C
2. COc1cc(OC)nc(Nc2ccc([C@@H]3CNCCO3)cc2)n1

[out]
1: -1.46; 2: -0.76

* * *

assayed.system: mouse TAAR1 (Mus musculus (Mouse))
Sequence (Q923Y8 whole entry): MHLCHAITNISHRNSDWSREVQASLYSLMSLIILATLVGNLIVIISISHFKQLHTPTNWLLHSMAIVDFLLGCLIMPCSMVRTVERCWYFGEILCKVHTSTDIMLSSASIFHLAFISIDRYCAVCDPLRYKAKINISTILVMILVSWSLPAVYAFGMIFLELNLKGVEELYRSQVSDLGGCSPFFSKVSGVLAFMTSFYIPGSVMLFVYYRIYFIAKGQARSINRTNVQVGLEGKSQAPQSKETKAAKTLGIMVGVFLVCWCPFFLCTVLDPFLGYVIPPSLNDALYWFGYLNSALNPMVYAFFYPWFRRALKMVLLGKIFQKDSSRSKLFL
assay.method.text: Radioligand binding assay on mouse TAAR1
condition.label: mouse TAAR1 (first value of the cell), HEK-293 membranes; read-out: Ki (μM) mouse/rat
Please use 1 for Ki under 0.004 µM and 0 for everything else, ties included.

Record excerpt, results attached:
c1ccc2nc(Nc3ccc([C@@H]4CNCCO4)cc3)ncc2c1
1
CCc1cnc(Nc2ccc([C@H]3CNCCO3)cc2C)nc1
0
Fc1cc(Br)cnc1Nc1ccc([C@H]2CNCCO2)cc1
1

[in] Please determine if `CS(=O)(=O)c1cnc(Nc2ccc([C@H]3CNCCO3)cc2)nc1` is below 0.004 µM in terms of Ki.
[out] 0

[in] What would you report for `Cc1cc(C(F)(F)F)nc(Nc2ccc([C@@H]3CNCCO3)cc2)n1` ?
[out] 0

[in] Lookup `Fc1cc(Nc2ncc(C3CC3)cn2)ccc1[C@H]1CNCCO1`
[out] 1

* * *

assayed.system: rat TAAR1 (Rattus norvegicus (Rat), UniProt Q923Y9)
assay.method.text: Radioligand binding assay on rat TAAR1
condition.label: rat TAAR1 (second value of the cell), HEK-293 membranes; read-out: Ki (μM) mouse/rat
result.type: Ki (µM)
One number for each entry, in µM.

# example entries with known answers
Fc1cc(Nc2ncc(OCC(F)(F)F)cn2)ccc1[C@@H]1CNCCO1
0.0102
Brc1cccc2nc(Nc3ccc([C@H]4CNCCO4)cc3)ccc12
0.0045
Cc1cc(Nc2ccc(C3CNCCO3)cc2C)ncc1Cl (racemic)
0.057

# per-item lookup of Ki; items listed below
1. Clc1ccc(Nc2ccc(C3CNCCO3)cn2)nc1 (racemic)
2. CCc1cnc(Nc2ccc([C@@H]3CCCNC3)cc2)nc1
3. FC(F)Oc1cnc(Oc2cnc(Nc3ccc([C@@H]4CNCCO4)cc3)nc2)nc1
4. Fc1cc([C@@H]2CNCCO2)ccc1Nc1ncc(OCC(F)(F)F)cn1
5. CCc1cnc(Nc2ccc([C@@H]3CNCCO3)cc2C)nc1
6. Clc1ccc(CNc2ccc([C@H]3CNCCO3)cc2)cc1Cl

[out]
[0.232, 0.197, 0.0628, 0.0049, 0.0814, 0.0417]

* * *

assayed.system: rat TAAR1 (Rattus norvegicus (Rat), UniProt Q923Y9)
assay.method.text: Radioligand binding assay on rat TAAR1
condition.label: rat TAAR1 (second value of the cell), HEK-293 membranes; read-out: Ki (μM) mouse/rat
Mark 1 (yes) for Ki under 0.2 µM, 0 (no) if at or over.

Here's what some known entries look like.
CNC(=O)c1cnc(Nc2ccc([C@@H]3CNCCO3)cc2)nc1
0 (no)
Clc1cnc(Nc2ccc([C@@H]3CNCCO3)cc2)cn1
1 (yes)
Clc1cc(Nc2ncc(C3CC3)cn2)ccc1[C@@H]1CNCCO1
1 (yes)

[in] Input `FC(F)(F)c1ccnc(Nc2ccc([C@H]3CNCCO3)cc2)c1` ; condition: Ki strictly below 0.2 µM. Does it hold?
[out] 1 (yes)

[in] `Fc1cc(Nc2ncc(C(F)(F)F)cn2)ccc1[C@H]1CNCCO1` ?
[out] 1 (yes)

[in] Now this one: `N#Cc1ccc(CNc2ccc([C@H]3CNCCO3)cc2)cc1`
[out] 0 (no)

[in] Okay, and `CCc1ccc(CNc2ccc([C@H]3CNCCO3)cc2)cc1` ?
[out] 1 (yes)

[in] Query `Cc1cc([C@@H]2CNCCO2)ccc1Nc1ncc(C2CC2)cn1` next
[out] 1 (yes)

[in] Again, but for CCc1cnc(Nc2ccc(C3CNCCO3)cc2F)nc1 (racemic)
[out] 1 (yes)

* * *

assayed.system: rat TAAR1 (Rattus norvegicus (Rat))
assay.method.text: Radioligand binding assay on rat TAAR1
condition.label: rat TAAR1 (second value of the cell), HEK-293 membranes; read-out: Ki (μM) mouse/rat
result.type: Ki

Here's what some known entries look like.
c1ccc(-c2nnc(Nc3ccc([C@H]4CNCCO4)cc3)o2)cc1 [Example 115]
0.235 µM
FC(F)(F)c1ncc(Nc2ccc([C@H]3CNCCO3)cc2)cn1 [Example 153]
0.84 µM
c1ccc(-n2ccc(Nc3ccc([C@@H]4CNCCO4)cc3)n2)cc1 [Example 164]
0.025 µM
Clc1ccc(CCNc2ccc([C@H]3CNCCO3)cc2)cc1 [Example 34]
0.0181 µM
Fc1cc([C@H]2CNCCO2)ccc1Nc1ncc(Cl)cn1 [Example 131]
0.0379 µM

Required: Ki, one value per compound below.
1. CCCc1cnc(Nc2ccc(C3CNCCO3)cc2F)nc1 (racemic) [Example 101]
2. COc1cnc(Nc2ccc([C@H]3CNCCO3)cc2)nc1 [Example 12]
3. FC(F)(F)COc1cnc(Nc2ccc([C@H]3CNCCO3)cc2)nc1 [Example 136]

[out]
1. 0.0041 µM
2. 0.259 µM
3. 0.0494 µM

[in] What value of measured Ki is listed for FC(F)(F)c1ccc(CNc2ccc([C@H]3CNCCO3)cc2)cn1 [Example 33] ?
[out] 0.544 µM
